- TEST SYSTEM: hULK3 (Homo sapiens)

COMPOUND STRING | IC50
Cc1cn(CCN2CCN(c3ccccc3-c3cc(C#N)cc(C(=O)NCCCN4CCCC4)c3)CC2)c2ccccc12 | > 20 µM

###

- TEST SYSTEM: hABL1(pF317I) (Homo sapiens, UniProt P00519, F317I)
- Sequence (P00519 whole entry F317I): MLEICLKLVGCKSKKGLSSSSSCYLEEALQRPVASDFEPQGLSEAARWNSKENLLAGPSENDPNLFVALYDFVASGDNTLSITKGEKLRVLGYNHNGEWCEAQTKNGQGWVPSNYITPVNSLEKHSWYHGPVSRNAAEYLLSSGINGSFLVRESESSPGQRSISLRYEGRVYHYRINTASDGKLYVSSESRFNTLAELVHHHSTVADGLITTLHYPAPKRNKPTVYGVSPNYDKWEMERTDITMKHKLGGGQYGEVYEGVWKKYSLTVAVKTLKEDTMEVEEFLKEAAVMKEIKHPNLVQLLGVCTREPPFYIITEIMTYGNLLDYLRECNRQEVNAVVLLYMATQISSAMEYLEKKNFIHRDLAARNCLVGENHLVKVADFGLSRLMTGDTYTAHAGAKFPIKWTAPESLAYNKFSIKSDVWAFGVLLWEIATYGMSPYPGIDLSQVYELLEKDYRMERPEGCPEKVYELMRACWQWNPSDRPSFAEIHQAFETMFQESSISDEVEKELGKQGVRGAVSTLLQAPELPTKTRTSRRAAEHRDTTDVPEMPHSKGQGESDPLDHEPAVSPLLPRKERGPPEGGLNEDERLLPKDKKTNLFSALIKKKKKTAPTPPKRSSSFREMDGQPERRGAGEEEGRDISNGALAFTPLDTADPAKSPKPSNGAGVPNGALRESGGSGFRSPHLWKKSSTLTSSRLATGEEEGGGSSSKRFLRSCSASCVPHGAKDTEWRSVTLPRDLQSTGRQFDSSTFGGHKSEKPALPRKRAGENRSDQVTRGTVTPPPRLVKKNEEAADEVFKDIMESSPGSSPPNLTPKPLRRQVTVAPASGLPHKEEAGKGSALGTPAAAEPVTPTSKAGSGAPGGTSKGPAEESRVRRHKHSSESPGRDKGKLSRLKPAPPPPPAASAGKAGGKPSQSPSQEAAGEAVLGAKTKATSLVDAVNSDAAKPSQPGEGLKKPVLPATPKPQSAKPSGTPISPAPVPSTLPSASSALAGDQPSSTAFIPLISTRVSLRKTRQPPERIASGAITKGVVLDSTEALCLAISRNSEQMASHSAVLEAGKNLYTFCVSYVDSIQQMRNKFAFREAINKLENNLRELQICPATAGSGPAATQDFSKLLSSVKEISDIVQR
- METHOD SUMMARY: KINOMEscan
pIC50: −log10 of the molar value.

COMPOUND STRING | TEST SYSTEM | pIC50
Cc1cn(CCN2CCN(c3ccccc3-c3cc(C#N)cc(C(=O)NCCCN4CCCC4)c3)CC2)c2ccccc12 | hABL1(pF317I) (Homo sapiens, UniProt P00519, F317I) | < 4.70

###

Target sequence: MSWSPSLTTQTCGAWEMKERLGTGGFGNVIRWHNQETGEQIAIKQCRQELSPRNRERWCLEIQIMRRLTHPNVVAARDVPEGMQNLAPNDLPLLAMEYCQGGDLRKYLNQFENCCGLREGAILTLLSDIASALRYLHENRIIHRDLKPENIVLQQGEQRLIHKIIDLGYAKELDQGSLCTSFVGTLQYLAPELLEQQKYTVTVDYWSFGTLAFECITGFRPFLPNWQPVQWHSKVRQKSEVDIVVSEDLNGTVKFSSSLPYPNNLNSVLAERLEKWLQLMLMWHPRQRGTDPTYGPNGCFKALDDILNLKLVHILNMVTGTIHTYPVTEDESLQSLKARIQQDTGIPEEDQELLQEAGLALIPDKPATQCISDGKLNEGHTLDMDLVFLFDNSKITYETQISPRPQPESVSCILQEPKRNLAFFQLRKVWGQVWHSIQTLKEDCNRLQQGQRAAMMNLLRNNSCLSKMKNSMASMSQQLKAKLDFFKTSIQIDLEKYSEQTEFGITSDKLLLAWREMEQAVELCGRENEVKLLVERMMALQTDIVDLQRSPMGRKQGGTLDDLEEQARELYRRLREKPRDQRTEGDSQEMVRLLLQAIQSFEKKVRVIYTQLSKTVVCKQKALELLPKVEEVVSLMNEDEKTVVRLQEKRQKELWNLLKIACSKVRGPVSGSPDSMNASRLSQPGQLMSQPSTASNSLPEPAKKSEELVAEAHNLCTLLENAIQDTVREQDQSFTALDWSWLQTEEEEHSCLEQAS
pIC50: −log10 of the molar value.
REPORTED ENDPOINT: pIC50

MOLECULE | RECORDED MEASUREMENT
Cc1cn(CCN2CCN(c3ccccc3-c3cc(C#N)cc(C(=O)NCCCN4CCCC4)c3)CC2)c2ccccc12 [LLY-507] | < 4.70

###

Protein target, amino acids: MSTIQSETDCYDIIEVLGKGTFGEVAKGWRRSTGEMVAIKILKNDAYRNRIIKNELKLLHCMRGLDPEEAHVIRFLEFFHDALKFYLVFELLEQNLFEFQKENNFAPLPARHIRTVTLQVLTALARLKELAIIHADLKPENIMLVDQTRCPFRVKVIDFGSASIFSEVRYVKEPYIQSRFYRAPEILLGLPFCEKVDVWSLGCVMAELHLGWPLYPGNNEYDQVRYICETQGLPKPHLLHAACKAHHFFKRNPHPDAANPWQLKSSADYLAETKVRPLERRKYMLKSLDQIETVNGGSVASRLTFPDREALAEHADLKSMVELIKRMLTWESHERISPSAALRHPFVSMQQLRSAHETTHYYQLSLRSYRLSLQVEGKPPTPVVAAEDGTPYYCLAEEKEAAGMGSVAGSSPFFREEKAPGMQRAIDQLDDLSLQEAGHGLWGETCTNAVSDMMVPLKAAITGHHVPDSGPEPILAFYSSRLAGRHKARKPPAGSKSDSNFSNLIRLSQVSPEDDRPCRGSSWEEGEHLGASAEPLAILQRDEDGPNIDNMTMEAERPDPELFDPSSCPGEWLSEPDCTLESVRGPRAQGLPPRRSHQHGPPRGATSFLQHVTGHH
REPORTED ENDPOINT: IC50

MOLECULE | RECORDED MEASUREMENT
Cc1cn(CCN2CCN(c3ccccc3-c3cc(C#N)cc(C(=O)NCCCN4CCCC4)c3)CC2)c2ccccc12 [LLY-507] | > 20 µM

###

- TEST SYSTEM: hLOK (Homo sapiens, UniProt O94804)
- Sequence (O94804 whole entry): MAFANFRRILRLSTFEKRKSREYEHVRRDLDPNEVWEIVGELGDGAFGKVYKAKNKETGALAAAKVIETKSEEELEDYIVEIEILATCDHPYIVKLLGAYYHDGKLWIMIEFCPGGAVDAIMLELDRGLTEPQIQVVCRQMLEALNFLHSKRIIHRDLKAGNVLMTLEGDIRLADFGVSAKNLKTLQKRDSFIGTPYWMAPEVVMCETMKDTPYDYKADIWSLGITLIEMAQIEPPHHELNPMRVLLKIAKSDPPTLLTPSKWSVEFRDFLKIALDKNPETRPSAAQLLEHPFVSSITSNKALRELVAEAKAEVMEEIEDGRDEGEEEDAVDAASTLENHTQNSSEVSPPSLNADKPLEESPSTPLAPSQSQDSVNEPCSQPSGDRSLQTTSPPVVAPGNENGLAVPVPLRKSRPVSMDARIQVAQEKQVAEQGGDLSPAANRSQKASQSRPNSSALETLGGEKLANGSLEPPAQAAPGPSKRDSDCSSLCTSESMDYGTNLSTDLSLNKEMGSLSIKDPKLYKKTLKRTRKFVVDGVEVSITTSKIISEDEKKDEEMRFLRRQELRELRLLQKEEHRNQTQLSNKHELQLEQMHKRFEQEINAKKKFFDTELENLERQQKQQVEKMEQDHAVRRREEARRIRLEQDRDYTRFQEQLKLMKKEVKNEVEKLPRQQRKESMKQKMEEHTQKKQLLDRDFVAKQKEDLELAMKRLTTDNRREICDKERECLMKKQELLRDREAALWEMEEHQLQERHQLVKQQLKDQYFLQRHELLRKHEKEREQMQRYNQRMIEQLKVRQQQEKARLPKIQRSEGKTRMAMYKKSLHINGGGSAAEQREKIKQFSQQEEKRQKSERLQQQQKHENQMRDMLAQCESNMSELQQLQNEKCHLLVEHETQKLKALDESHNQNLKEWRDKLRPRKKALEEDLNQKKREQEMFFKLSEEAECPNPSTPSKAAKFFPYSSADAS
REPORTED ENDPOINT: IC50

COMPOUND STRING | RECORDED MEASUREMENT
Cc1cn(CCN2CCN(c3ccccc3-c3cc(C#N)cc(C(=O)NCCCN4CCCC4)c3)CC2)c2ccccc12 | > 20 µM

###

- TEST SYSTEM: hSYK (Homo sapiens)
pIC50: −log10 of the molar value.

COMPOUND | pIC50
Cc1cn(CCN2CCN(c3ccccc3-c3cc(C#N)cc(C(=O)NCCCN4CCCC4)c3)CC2)c2ccccc12 [LLY-507] | < 4.70

###

- TEST SYSTEM: hJAK1(JH1Dom.-catalytic) (Homo sapiens, UniProt P23458)

COMPOUND | IC50
Cc1cn(CCN2CCN(c3ccccc3-c3cc(C#N)cc(C(=O)NCCCN4CCCC4)c3)CC2)c2ccccc12 [LLY-507] | > 20 µM

###

- TEST SYSTEM: hGRK4 (Homo sapiens)
pIC50: −log10 of the molar value.
REPORTED ENDPOINT: pIC50

COMPOUND | TEST SYSTEM | REPORTED ENDPOINT | RECORDED MEASUREMENT
Cc1cn(CCN2CCN(c3ccccc3-c3cc(C#N)cc(C(=O)NCCCN4CCCC4)c3)CC2)c2ccccc12 [LLY-507] | hGRK4 (Homo sapiens) | pIC50 | < 4.70

###

- TEST SYSTEM: hYSK1 (Homo sapiens, UniProt O00506)
REPORTED ENDPOINT: IC50

COMPOUND | RECORDED MEASUREMENT
Cc1cn(CCN2CCN(c3ccccc3-c3cc(C#N)cc(C(=O)NCCCN4CCCC4)c3)CC2)c2ccccc12 [LLY-507] | > 20 µM

###

- TEST SYSTEM: hERβ (Homo sapiens)

COMPOUND STRING | IC50
Cc1cn(CCN2CCN(c3ccccc3-c3cc(C#N)cc(C(=O)NCCCN4CCCC4)c3)CC2)c2ccccc12 | > 10 µM

###

- TEST SYSTEM: hDYRK2 (Homo sapiens)
- Sequence (Q92630 whole entry): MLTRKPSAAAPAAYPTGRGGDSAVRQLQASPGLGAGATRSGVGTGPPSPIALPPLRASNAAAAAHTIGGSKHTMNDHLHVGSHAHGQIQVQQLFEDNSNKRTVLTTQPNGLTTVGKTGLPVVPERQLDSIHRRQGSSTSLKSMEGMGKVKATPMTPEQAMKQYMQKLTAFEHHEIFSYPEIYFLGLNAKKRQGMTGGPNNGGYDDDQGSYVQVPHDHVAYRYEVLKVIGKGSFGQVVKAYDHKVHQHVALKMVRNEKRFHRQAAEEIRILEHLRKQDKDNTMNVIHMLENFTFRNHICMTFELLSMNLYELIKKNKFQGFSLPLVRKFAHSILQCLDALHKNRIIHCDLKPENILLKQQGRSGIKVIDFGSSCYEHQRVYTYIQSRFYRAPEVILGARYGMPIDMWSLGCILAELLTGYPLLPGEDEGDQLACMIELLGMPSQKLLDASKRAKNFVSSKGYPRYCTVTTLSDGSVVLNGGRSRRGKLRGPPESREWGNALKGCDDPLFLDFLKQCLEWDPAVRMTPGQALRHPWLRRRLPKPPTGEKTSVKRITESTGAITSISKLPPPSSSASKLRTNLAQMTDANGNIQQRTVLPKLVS
pIC50: −log10 of the molar value.

COMPOUND STRING | pIC50
Cc1cn(CCN2CCN(c3ccccc3-c3cc(C#N)cc(C(=O)NCCCN4CCCC4)c3)CC2)c2ccccc12 | < 4.70

###

- TEST SYSTEM: UniProt Q9P0L2
- Sequence (Q9P0L2 whole entry): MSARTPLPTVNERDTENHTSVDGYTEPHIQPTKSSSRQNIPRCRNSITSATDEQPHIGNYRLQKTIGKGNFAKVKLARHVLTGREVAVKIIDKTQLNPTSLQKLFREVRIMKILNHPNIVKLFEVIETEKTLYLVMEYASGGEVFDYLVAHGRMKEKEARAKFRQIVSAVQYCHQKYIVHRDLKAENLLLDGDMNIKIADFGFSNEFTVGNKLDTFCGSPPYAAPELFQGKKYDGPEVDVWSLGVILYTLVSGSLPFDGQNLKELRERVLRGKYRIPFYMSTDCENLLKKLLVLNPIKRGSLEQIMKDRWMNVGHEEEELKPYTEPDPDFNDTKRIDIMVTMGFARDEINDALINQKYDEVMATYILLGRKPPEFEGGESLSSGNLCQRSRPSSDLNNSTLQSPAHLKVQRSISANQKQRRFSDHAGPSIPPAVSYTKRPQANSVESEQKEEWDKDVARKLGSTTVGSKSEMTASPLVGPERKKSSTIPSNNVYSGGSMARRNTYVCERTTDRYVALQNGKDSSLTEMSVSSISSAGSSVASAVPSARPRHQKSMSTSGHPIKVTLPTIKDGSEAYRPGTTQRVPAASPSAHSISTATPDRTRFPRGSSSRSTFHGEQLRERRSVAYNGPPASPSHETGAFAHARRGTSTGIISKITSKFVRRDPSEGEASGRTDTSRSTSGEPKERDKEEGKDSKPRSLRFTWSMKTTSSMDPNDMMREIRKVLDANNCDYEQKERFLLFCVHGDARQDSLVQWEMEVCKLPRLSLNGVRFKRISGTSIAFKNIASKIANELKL

COMPOUND | TEST SYSTEM | IC50
Cc1cn(CCN2CCN(c3ccccc3-c3cc(C#N)cc(C(=O)NCCCN4CCCC4)c3)CC2)c2ccccc12 [LLY-507] | UniProt Q9P0L2 | > 20 µM

###

- TEST SYSTEM: UniProt P35968
- Sequence (P35968 20-1356): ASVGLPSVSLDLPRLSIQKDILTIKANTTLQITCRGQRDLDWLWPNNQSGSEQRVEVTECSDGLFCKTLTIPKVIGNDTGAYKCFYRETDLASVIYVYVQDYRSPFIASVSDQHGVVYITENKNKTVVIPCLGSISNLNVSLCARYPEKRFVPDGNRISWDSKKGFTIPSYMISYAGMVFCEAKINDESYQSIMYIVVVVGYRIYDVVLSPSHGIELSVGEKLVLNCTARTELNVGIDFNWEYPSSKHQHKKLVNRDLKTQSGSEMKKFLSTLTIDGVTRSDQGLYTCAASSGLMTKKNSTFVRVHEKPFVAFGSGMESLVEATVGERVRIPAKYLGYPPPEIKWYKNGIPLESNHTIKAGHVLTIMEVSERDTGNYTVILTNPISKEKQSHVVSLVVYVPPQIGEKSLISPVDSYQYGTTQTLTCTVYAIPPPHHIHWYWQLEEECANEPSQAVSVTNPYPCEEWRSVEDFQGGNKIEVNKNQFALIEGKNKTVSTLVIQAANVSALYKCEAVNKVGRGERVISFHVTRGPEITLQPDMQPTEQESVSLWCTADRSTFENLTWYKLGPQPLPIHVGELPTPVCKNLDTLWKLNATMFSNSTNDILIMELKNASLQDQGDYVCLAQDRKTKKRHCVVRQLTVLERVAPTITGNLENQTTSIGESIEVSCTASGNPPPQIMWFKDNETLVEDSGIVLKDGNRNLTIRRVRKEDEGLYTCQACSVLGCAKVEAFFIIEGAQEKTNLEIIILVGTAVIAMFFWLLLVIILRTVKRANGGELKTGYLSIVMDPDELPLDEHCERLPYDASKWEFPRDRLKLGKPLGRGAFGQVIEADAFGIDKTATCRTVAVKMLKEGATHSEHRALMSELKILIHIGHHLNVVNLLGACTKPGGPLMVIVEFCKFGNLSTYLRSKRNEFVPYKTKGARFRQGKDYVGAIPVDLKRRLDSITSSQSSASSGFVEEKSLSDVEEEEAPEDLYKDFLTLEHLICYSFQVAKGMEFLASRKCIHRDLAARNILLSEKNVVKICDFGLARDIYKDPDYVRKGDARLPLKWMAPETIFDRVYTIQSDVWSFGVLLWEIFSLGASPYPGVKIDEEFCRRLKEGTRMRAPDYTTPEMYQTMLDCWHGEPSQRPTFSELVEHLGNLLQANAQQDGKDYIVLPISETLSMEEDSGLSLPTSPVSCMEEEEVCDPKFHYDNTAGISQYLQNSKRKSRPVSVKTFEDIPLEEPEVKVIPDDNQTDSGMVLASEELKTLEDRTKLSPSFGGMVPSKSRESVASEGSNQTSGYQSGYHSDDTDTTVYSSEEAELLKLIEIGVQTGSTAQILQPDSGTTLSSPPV

COMPOUND | IC50
Cc1cn(CCN2CCN(c3ccccc3-c3cc(C#N)cc(C(=O)NCCCN4CCCC4)c3)CC2)c2ccccc12 [LLY-507] | > 20 µM

###

- TEST SYSTEM: hFLT3(D835Y) (Homo sapiens, UniProt P36888, D835Y)
- Sequence (P36888 27-993 D835Y): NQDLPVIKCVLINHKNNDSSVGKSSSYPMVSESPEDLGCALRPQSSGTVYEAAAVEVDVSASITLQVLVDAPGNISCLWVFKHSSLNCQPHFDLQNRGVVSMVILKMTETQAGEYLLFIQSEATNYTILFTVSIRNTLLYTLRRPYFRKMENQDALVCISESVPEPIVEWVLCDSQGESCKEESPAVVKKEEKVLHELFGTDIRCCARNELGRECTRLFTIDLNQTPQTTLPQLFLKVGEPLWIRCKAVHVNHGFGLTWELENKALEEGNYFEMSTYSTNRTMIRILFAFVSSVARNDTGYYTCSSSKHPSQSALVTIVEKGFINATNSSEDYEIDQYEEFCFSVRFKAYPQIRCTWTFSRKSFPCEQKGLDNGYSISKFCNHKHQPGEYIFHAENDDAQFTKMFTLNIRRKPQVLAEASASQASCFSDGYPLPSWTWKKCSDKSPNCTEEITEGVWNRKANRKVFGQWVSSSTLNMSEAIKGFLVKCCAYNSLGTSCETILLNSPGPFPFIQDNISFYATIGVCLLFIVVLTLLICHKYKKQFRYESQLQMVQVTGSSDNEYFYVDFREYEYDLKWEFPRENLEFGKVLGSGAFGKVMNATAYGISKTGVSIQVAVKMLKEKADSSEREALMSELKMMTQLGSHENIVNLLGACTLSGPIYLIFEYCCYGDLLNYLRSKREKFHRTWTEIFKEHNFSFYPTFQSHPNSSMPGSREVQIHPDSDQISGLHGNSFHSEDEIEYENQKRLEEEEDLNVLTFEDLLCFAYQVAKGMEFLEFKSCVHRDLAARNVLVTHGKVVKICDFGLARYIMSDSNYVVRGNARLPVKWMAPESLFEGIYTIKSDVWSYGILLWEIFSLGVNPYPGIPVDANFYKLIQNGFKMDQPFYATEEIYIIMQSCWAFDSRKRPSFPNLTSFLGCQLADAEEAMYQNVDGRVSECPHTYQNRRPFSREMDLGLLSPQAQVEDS
- METHOD SUMMARY: KINOMEscan
REPORTED ENDPOINT: IC50

COMPOUND STRING | RECORDED MEASUREMENT
Cc1cn(CCN2CCN(c3ccccc3-c3cc(C#N)cc(C(=O)NCCCN4CCCC4)c3)CC2)c2ccccc12 | > 20 µM
